- Tested on: Clostridium difficile
- Test method notes: growth AUC relative to DMSO control (median of replicates) (fraction); higher = more growth (less inhibition), active = hit call of the paper;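 active = AUC reduced over 20% with Padj below 0.05 in at least 2 of 3 replicates; inactive = otherwise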
- Condition details: 20 µM; 24 h
Returns: one label drawn from 1.0 for active, 0.0 for inactive

OC(c1ccc(F)cc1)(c1cncnc1)c1ccccc1Cl (configuration not stated) = 0.0
CCOC(=O)/C=C(C)/C=C/C[C@@H](C)CCCC(C)C = 0.0
CCCOCCN(C(=O)CCl)c1c(CC)cccc1CC = 0.0
CCNc1nc(Cl)nc(NC(C)(C)C)n1 = 0.0
CCOP(=O)(NC(C)C)Oc1ccc(S(C)(=O)=O)c(C)c1 (configuration not stated) = 0.0

Query: Dear colleague, could you share the recorded outcome for COP1(=S)OCc2ccccc2O1 (configuration not stated) when you have a moment?
Response: 0.0

Query: Dear colleague, could you share the recorded outcome for `CCOC(=O)C(O)(c1ccc(Cl)cc1)c1ccc(Cl)cc1` when you have a moment?
Response: 0.0

Query: Dear colleague, could you share the recorded outcome for `CCOP(=S)(OCC)SCCSCC` when you have a moment?
Response: 0.0

Query: Dear colleague, could you share the recorded outcome for `O=[N+]([O-])c1cc(Cl)ccc1Cl` when you have a moment?
Response: 0.0

Query: Dear colleague, could you share the recorded outcome for `COP(=S)(OC)Oc1nc(Cl)c(Cl)cc1Cl` when you have a moment?
Response: 0.0

Query: Dear colleague, could you share the recorded outcome for O=c1oc2ccccc2c(O)c1C1CC(c2ccc(-c3ccc(Br)cc3)cc2)Cc2ccccc21 (configuration not stated) when you have a moment?
Response: 1.0

Query: Dear colleague, could you share the recorded outcome for `CC(C)c1ccc(NC(=O)N(C)C)cc1` when you have a moment?
Response: 0.0

###

Assignment: determine reported growth AUC for the given compounds.
- System: Bacteroides clarus
- Test method notes: growth AUC relative to DMSO control (median of replicates) (fraction); higher = more growth (less inhibition), active = hit call of the paper
- Condition details: 20 µM; 24 h

Could you tell me growth AUC for each of these compounds? They are listed below.
1. O=C(NC(=O)c1c(F)cccc1F)Nc1ccc(Cl)c(Oc2ncc(C(F)(F)F)cc2Cl)c1
2. CC1(C)C(C=C(Cl)Cl)[C@@H]1C(=O)O[C@@H](C#N)c1ccc(F)c(Oc2ccccc2)c1 (stereo partly specified)
3. Cc1c(F)c(F)c(COC(=O)[C@@H]2[C@H](/C=C(\Cl)C(F)(F)F)C2(C)C)c(F)c1F (mixture of isomers)
4. Oc1cc(Cl)c(Cl)cc1Cl
5. CCOC(=O)c1cn2nc(OP(=S)(OCC)OCC)cc2nc1C
6. COP(=S)(OC)SC(CC(=O)O)C(=O)O (stereo unspecified)
7. N#CCNC(=O)c1cnccc1C(F)(F)F
8. N#CN=C1SCCN1Cc1ccc(Cl)nc1

Response:
1.02 (inactive)
1.01 (inactive)
0.993 (inactive)
0.945 (inactive)
0.945 (inactive)
0.963 (inactive)
0.959 (inactive)
1 (inactive)

Could you tell me growth AUC for each of these compounds? They are listed below.
1. O=S(=O)(c1ccc(O)cc1)c1ccc(O)cc1
2. CNC(=O)Oc1ccccc1OC(C)C
3. S=C1NCCN1
4. Clc1c(Cl)c(Cl)c(Cl)c(Cl)c1Cl
5. COP(=O)(OC)Oc1ccc(S(C)=O)c(C)c1 (stereo unspecified)
6. COc1cccc(C(=O)NN(C(=O)c2cc(C)cc(C)c2)C(C)(C)C)c1C
7. CCOP(=S)(OCC)Oc1cnccn1

Response:
1: 1 (inactive); 2: 0.977 (inactive); 3: 0.998 (inactive); 4: 1 (inactive); 5: 0.95 (inactive); 6: 0.996 (inactive); 7: 0.963 (inactive)

Could you tell me growth AUC for each of these compounds? They are listed below.
1. CN(C)C(=O)Nc1cccc(OC(=O)NC(C)(C)C)c1
2. CCCCCCCC(=O)Oc1c(I)cc(C#N)cc1I
3. C=CCC1=C(C)C(OC(=O)C2C(C=C(C)C)C2(C)C)CC1=O (mixture of isomers)

Response:
1: 1.01 (inactive); 2: 0.864 (inactive); 3: 1.04 (inactive)

Hello, the source for this data is the supplement of paper PMC12669032, in case you need it.
